experiment: Human HepG2 cell viability assay in 384 well format; type: toxicity, cell-based; parameters: dose 125 nL, time 70.5 hour; concentration not given beside the values; conditions: HepG2 cells, read-out: Inhibition
Metric name: cytotoxicity at 70.5 h (%)
Write the value in % as a bare number.

INSERT INTO assay_data (compound, assay_value) VALUES
  ('O=C(NCCCN1CCOCC1)c1ccc(-c2ccccc2)[nH]c1=O', -5.86),
  ('CC(NC(=O)NCc1ccc(Cl)cc1)c1ccccn1 (centres undefined)', -10.7),
  ('CCO[C@H]1C[C@@H](O)C12CCN(C(=O)CN1CCCCCC1=O)CC2', 6.65),
  ('Cc1cc(C)n(CC2CCCN2CC(=O)Nc2nnc(C)s2)n1 (centres undefined)', 0.949),
  ('Cc1ncc2c(n1)CCN(Cc1nc(Cc3ccccc3)no1)C2', 1.16),
  ('CN(Cc1cnn(C)c1)S(=O)(=O)N1CCc2ccccc2C1', 7.8),
  ('O=C(Cc1ccc2c(c1)CCC2)NC1CCN(Cc2ccccc2)CC1', 30.6),
  ('O=S(=O)(c1ccccc1)N1CCC2(CCCN2Cc2cccc(Cl)c2)C1 (centres undefined)', -11.2);

INPUT: Tell me cytotoxicity at 70.5 h reported for O=C(c1ccc[nH]1)N1CCCC2(CCCN2Cc2cccnc2)C1 (centres undefined)
OUTPUT: 11.9

INPUT: Tell me cytotoxicity at 70.5 h reported for Cn1c(C(=O)N2CCc3[nH]cnc3C2C(=O)O)ccc1-c1ccccc1 (centres undefined)
OUTPUT: -2.27

INPUT: Tell me cytotoxicity at 70.5 h reported for COc1ccc(C(C(=O)O)N2CCCN(C3CCCCC3)CC2)cn1 (centres undefined)
OUTPUT: -10.2

INPUT: Tell me cytotoxicity at 70.5 h reported for O=C(c1ccncc1)N1CCC2(CC1)C(=O)Nc1ccccc12
OUTPUT: -10.1

INPUT: Tell me cytotoxicity at 70.5 h reported for CCCN1CCC(Cc2nc(CN3CCN(C)CC3)no2)CC1
OUTPUT: -5.37
